# PROTOCOL TEXT: Selectivity index, ratio of CC50 for cytotoxicity against mouse J774.A1 cells to IC50 for antileishmanial activity against Leishmania amazonensis axenic amastigote assessed as inhibition of parasite growth
# Type: toxicity, cell-based
# APPLIED CONDITIONS: read-out: Ratio CC50/IC50
MEASURED PROPERTY: selectivity ratio

Would you please look over these solved cases?
• N#Cc1c(N)sc2c1CCCCC2 = 35.7
• N#Cc1c(N)sc2c1CCCCCC2 = 4.47

Let me know recorded selectivity ratio for N#Cc1ccsc1/N=C/c1c[nH]c2ccc(Br)cc12 , thanks. 119

Using the record for CC1CCc2c(sc(/N=C/c3c[nH]c4ccc(Br)cc34)c2C#N)C1 (stereo not given) , state its measured selectivity ratio. > 11.5

Determine from records and report selectivity ratio for N#Cc1c(/N=C/c2c[nH]c3ccc(Br)cc23)sc2c1CCCCCC2 > 26.3
